These measurements were taken from paper PMC4467461.

test: Single-dose pharmacokinetic profile; assay type: in vivo, mice; conditions: male, mouse, plasma, po, 10 mg/kg, mice, 10 mg kg^−1 oral; read-out: terminal elimination half-life (t1/2)

structure-as-smiles | half-life / min
COc1ccc(-c2nnc(Nc3nc4c(OC)cccc4s3)o2)cc1 | 19

---

test: Single-dose pharmacokinetic profile; format: in vivo, mice; details: male, mouse, plasma, po, 10 mg/kg, mice, 10 mg kg^−1 oral

compound | Cmax, µM
COc1ccc(-c2nnc(Nc3nc4c(OC)cccc4s3)o2)cc1 [Compound N106] | 0.457

---

test: Single-dose pharmacokinetic profile; assay type: in vivo, mice; conditions: male, mouse, plasma, oral, 10 mg kg^−1, mice, 10 mg kg^−1 PO vs IV; read-out: oral bioavailability (F%)

structure-as-smiles | bioavailability
COc1ccc(-c2nnc(Nc3nc4c(OC)cccc4s3)o2)cc1 | 56%

---

test: Single-dose pharmacokinetic profile; type: in vivo, mice; conditions: male, mouse, plasma; mice, 10 mg kg^−1 oral

structure-as-smiles | units-label | Tmax
COc1ccc(-c2nnc(Nc3nc4c(OC)cccc4s3)o2)cc1 | min | 30

---

assay: Single-dose pharmacokinetic profile; type: in vivo, mice; details: male, mouse, plasma, iv, 10 mg/kg, mice, 10 mg kg^−1 intravenous; read-out: half-life

compound | half-life (h)
COc1ccc(-c2nnc(Nc3nc4c(OC)cccc4s3)o2)cc1 [Compound N106] | 1.09

---

test: Single-dose pharmacokinetic profile; type: in vivo, mice; conditions: male, mouse, plasma, iv, 10 mg/kg, mice, 10 mg kg^−1 intravenous
quantity-measured: Cmax (nM)

structure-as-smiles | observed-result
COc1ccc(-c2nnc(Nc3nc4c(OC)cccc4s3)o2)cc1 | 2240
